Test system: SNB-78
test: NCI tumour cell line growth inhibition, 48 h
Active and inactive are the calls of the source. No stated cut-off is given here; in the data, active = GI50 up to about 1.1 µM and inactive = higher.
Listed here are compounds together with their documented GI50.
measurement-label: GI50

* COC(=O)C12Oc3ccc(-c4ccc5c(c4O)C(=O)C4=CCC(C)C(O)C4(C(=O)OC)O5)c(O)c3C(=O)C1=CCC(C)C2O (stereo not given) | 1.95 µM (inactive)
* NC(=O)C12CC3CC(CC(Br)(C3)C1)C2 | > 100 µM (inactive)
* COc1cccc2c1C(=O)c1c(O)c3c(c(O)c1C2=O)C[C@@](O)(C(=O)CO)CC3OC1CC(O)C(O)C(C)O1 (stereo not given in full) | 1.28 µM (inactive)
* N#Cc1cccc2c1Nc1ccccc1S2 | 67.9 µM (inactive)
* O=C(c1cc(=O)c2ccc(O)cc2o1)c1ccc(Cl)cc1Cl | 31.3 µM (inactive)
* C=C/C(C)=C/[C@H](C)C(=O)C[C@H](O)CC1CC(=O)NC(=O)C1 | 27.4 µM (inactive)
* CC(C)N(C(=O)C12C3C4C1C1C2C3C41C(=O)C(C)(C)C)C(C)C (stereo not given) | > 100 µM (inactive)
* CC1(Sc2ccccc2)CN(Cc2ccccc2)C1=O (stereo not given) | > 100 µM (inactive)
* NNC(=O)/C(=C/c1ccc(Cl)c(Cl)c1)NC(=O)c1ccccc1 | > 100 µM (inactive)
* Brc1ccc2c(c1)C1(c3cc(Br)ccc3-2)c2cc(Br)ccc2-c2ccc(Br)cc21 | > 100 µM (inactive)

----------
Test system: NCI/ADR-RES
test: NCI tumour cell line growth inhibition, 48 h
Activity calls are given as the source filed them. Rule as the data show it: active = GI50 up to about 1.1 µM and inactive = higher.
Outcomes: true (1) (active), false (0) (inactive)

- CC(C)(C)c1cc(C2COC(c3cc(C(C)(C)C)c(O)c(C(C)(C)C)c3)CO2)cc(C(C)(C)C)c1O (stereo not given): false (0)
- CC(C)CC1c2[nH]c3ccccc3c2C[C@H]2C(=O)NC(CCCCNC(=O)OC(C)(C)C)C(=O)N12 (stereo not given in full): false (0)
- CCn1ncc2c1nc(-c1ccccc1)c[n+]2[O-]: false (0)
- CC(C)COP(=O)(OCC(C)C)C(NS(=O)(=O)c1ccccc1)(C(F)(F)F)C(F)(F)F: false (0)
- CSc1ccc(/C=C2\N=C(c3ccccc3)N(c3nc4cc(Cl)c(F)cc4s3)C2=O)cc1: false (0)
- CSc1nc(-c2cc3c(c(SC)n2)CCC3)cc2c1CCC2: false (0)
- CC(C)(C)OC(=O)[N+](=N)C(=O)C1CCC(=O)N1C(=O)OCc1ccccc1 (stereo not given): false (0)
- CC(C)[Si](OC1=C(C(=O)Nc2ccccc2Cl)CCCCC1)(C(C)C)C(C)C: false (0)
- COc1ccc(Nc2nn3c(=O)c4c(C)c(C)sc4nc3s2)cc1: false (0)
- CC(=O)c1cc2c(s1)C(=O)c1sccc1C2=O: true (1)

----------
Test system: A549
test: NCI tumour cell line growth inhibition, 48 h
Active and inactive are the calls of the source. Cut-off read from the data, not from the text of the source: active = GI50 up to about 1.1 µM and inactive = higher.
Listed here are compounds together with their documented GI50.
measurement-label: GI50

- CCNc1ccc2c(c1)Cc1ccccc1-2: 73.5 µM (inactive)
- COc1ccc(C(OC(=O)[C@H](O[Si](C)(C)C(C)(C)C)[C@@H](NC(=O)c2ccccc2)c2ccccc2)c2ccc(OC)cc2)cc1: > 100 µM (inactive)
- O=P1(N2CCOCC2)OCCO1: > 100 µM (inactive)
- C[N+](C)(C)CC1CCCC/C1=N\OC(=O)c1ccccc1 (stereo not given): > 100 µM (inactive)
- Cc1ccc(NC2=NCCO2)c2c1CCC2: 41.7 µM (inactive)
- COc1cc(/C=C/C2=C(C#N)C(=O)OC2(C)C)ccc1O: > 100 µM (inactive)
- CC(C)(C)c1ccc2c(c1)C#Cc1cc3c(cc1OCCCO2)C#Cc1cc(C(C)(C)C)ccc1OCCCO3: > 100 µM (inactive)
- COC(=O)[C@@H]1[C@H]2CC[C@]3(C)[C@@H](OC(C)=O)CC[C@H]3[C@@H]2CC[C@H]1C1(C)SCCS1: 25.1 µM (inactive)
- COc1ccc(C2=C(Cl)C(=O)O/C2=C\c2ccc(OC)c(Br)c2)cc1Cl: 33.3 µM (inactive)
- CC12CC3c4ccccc4CN1C3(c1ccccc1)OC2=O (stereo not given): > 100 µM (inactive)

----------
System: A498
test: NCI tumour cell line growth inhibition, 48 h
Calls of active or inactive are those of the source. No stated cut-off is given here; in the data, active = GI50 up to about 1.1 µM and inactive = higher.
Listed here are compounds together with their documented GI50.
measurement-label: GI50

• CCCCC[C@H](O)[C@H](C)C=C1SCCCS1 = > 100 µM (inactive)
• COc1ccc(C(=O)C2CCC(C(=O)O)C2)cc1 (centres undefined) = > 100 µM (inactive)
• CC#C[P+](c1ccccc1)(c1ccccc1)c1ccccc1 = 39.4 µM (inactive)
• CCOC(=O)CC1Nc2ccccc2C12CCc1c([nH]c3ccccc13)C2C(=O)OCC (centres undefined) = 9.42 µM (inactive)
• O=C1C(Cl)C(c2cc3cc(Br)ccc3nc2Cl)N1c1ccc(Cl)cc1 (centres undefined) = 16.5 µM (inactive)
• CN1/C(=C/C=C/C=C/C=C2C(=O)c3ccccc3C2=O)C(C)(C)c2ccccc21 = 23.8 µM (inactive)
• CC(=O)OCC1OC(N2C(c3ccccc3)=CC(c3cccs3)C(C#N)=C2S)C(OC(C)=O)C(OC(C)=O)C1OC(C)=O (centres undefined) = 10.5 µM (inactive)
• O=[N+]([O-])c1cccc(/C=N/NC2=CS(=O)(=O)C=C2)c1 = > 100 µM (inactive)
• Cc1c(O)c(OC2OC(CO)C(O)C(O)C2O)cc2c1C=C[C@@H]1[C@@]2(C)C(=O)C[C@]2(C)[C@@H]([C@@](C)(O)C(O)/C=C/C(C)(C)O)[C@H](O)C[C@@]12C (some centres undefined) = > 100 µM (inactive)

----------
Test system: TK-10
test: NCI tumour cell line growth inhibition, 48 h
The source made the active and inactive calls. No stated cut-off is given here; in the data, active = GI50 up to about 1.1 µM and inactive = higher.
Outcomes: label 1 = active, label 0 = inactive

* CC(C)NC1CCCCC2c3cc(F)ccc3[C@]12O (stereo not given in full) | label 0
* O=C(NC(c1ccccc1)C(O)C(=O)OCc1ccc2c(c1)C(=O)c1ccccc1C2=O)c1ccccc1 (stereo not given) | label 0
* O=C(c1ccccc1)c1nc2ccc(Cl)cc2c2c1Cc1ccccc1-2 | label 0
* O=C(O)c1cc2ccccc2c(/N=N/c2ccc(S(=O)(=O)Nc3nccs3)cc2)c1O | label 0
* COc1ccc(C2SC(=N)Nc3c2c(C)nn3C(=O)c2ccc(Cl)cc2)cc1 (stereo not given) | label 0
* Cc1ccc(/C=N/NC2=NCCN2)s1 | label 0
* CCCCOC(=O)C(NC(C(=O)OCCCC)c1cc(C(C)(C)C)c(O)c(C(C)(C)C)c1)c1cc(C(C)(C)C)c(O)c(C(C)(C)C)c1 (stereo not given) | label 0
* O=[N+]([O-])c1ccc2nc3ccc([N+](=O)[O-])cn3c2c1 | label 0
* Cc1ccccc1NC(=S)N/N=C(/c1ccccc1)c1ccccn1 | label 1
* Nc1ncnc2c1nc(Cl)n2C1OC(CO)C(O)C1O (stereo not given) | label 1

----------
Tested on: SNB-19
test: NCI tumour cell line growth inhibition, 48 h
Active and inactive are the calls of the source. Rule as the data show it: active = GI50 up to about 1.1 µM and inactive = higher.
Outcomes: y (active), n (inactive)

• COC(=O)Nc1nc2cc(NS(=O)(=O)c3ccc(F)cc3)ccc2[nH]1 = n
• O=C(CSc1nc(-c2ccccc2)c(-c2ccccc2)[nH]1)N/N=C/c1ccc(O)cc1 = n
• O=C(O)CN(CCNC(=O)OCC1c2ccccc2-c2ccccc21)CCNC(=O)OCC1c2ccccc2-c2ccccc21 = n
• COc1ccc2[nH]c3c(C)c4ccnc(NCCCN(C)CCCNC(=O)NCCCN(C)CCCNc5nccc6c(C)c7[nH]c8ccc(OC)cc8c7c(C)c56)c4c(C)c3c2c1 = y
• COC(=O)c1c(C)cccc1C1CN=NC12Cc1ccc(C)cc1C2=O (centres undefined) = n
• Cc1ccc(S(=O)(=O)NC(=O)C#CCOC2CCCCO2)cc1 (centres undefined) = n
• Cc1ccc2c(c1)-c1c(C#N)c(N)nc(-c3ccc(Cl)cc3)c1CCS2(=O)=O = n
• COc1ccc2c(c1)[n+]([O-])c(/C(C)=N/NC(=O)c1ccccc1O)c(C)[n+]2[O-] = n
• COc1ccc(Sc2ccccc2N)cc1 = n

----------
System: LOX IMVI
test: NCI tumour cell line growth inhibition, 48 h
The source made the active and inactive calls. Rule as the data show it: active = GI50 up to about 1.1 µM and inactive = higher.
Outcomes: active, inactive

• CC[C@H]1C=CCC[C@@]2(C[C@@H]3CC[C@H]4[C@H](C(=O)OCCCCCCCCCCCCCCCC(=O)N(CCCN)C[C@@H](O)CCN)[C@]5(CCC[C@@H](C)O5)NC(=[N+]34)N2)O1 = active
• Nc1ccc(C(=O)N/C(=C\c2cccc([N+](=O)[O-])c2)c2nc3c4c(ccc3[nH]2)C(=O)c2ccccc2C4=O)cc1 = inactive
• Cc1cccc(/C=N/NC(=S)Nc2ccc(Cl)cc2)n1 = active
• O=C(c1ccccc1)c1nc2ccc(Cl)cc2c2c1Cc1ccccc1-2 = inactive
• CCC(C)C(C(=O)N/N=C1/SCC(=O)N1c1ccccc1)C(=O)N/N=C1/SCC(=O)N1c1ccccc1 (centres undefined) = inactive
• COC1=CC(=O)C2C(C1=O)C(c1ccc(Cl)cc1)[C@@H]2C (some centres undefined) = inactive
• CN1CC=C(c2cccn2C)CC1 = inactive
• CC(=O)OC1[C@H](OC(C)=O)C2=C(C)[C@@H](OC(C)=O)C[C@@]2(C(C)(C)O)[C@@H](OC(C)=O)[C@H]2[C@@]1(C)[C@@H](OC(C)=O)CC(OC(C)=O)[C@]21CO1 (some centres undefined) = inactive
• CCO/C=C1\N=C(C(Cl)c2ccccc2)OC1=O (centres undefined) = inactive
• COc1cc(Nc2cnc3cc(C(F)(F)F)ccc3n2)cc(OC)c1OC = inactive
• CCOC(=O)C1C(c2ccc(Cl)cc2Cl)NC(c2ccc(C)cc2)C(C(=O)OC)S1(=O)=O (centres undefined) = inactive
• CSc1ccc(/C=C2\N=C(c3ccccc3)N(c3nc4cc(Cl)c(F)cc4s3)C2=O)cc1 = inactive
• CCCCCC(CO)C(O)(C(F)(F)F)C(F)(F)F (centres undefined) = inactive
• Cc1ccc(S(=O)(=O)NN=C2C(C)CC(C(C)(C)C)CC2C)cc1 (centres undefined) = inactive
• CCOC(=O)CCC(C(=O)OCC)n1nnc2ccc(Nc3c(C)[n+]([O-])c4cc(Cl)ccc4[n+]3[O-])cc21 (centres undefined) = inactive
• O=c1c2ccccc2nc2n1CCc1c-2[nH]c2ccc(Br)cc12 = inactive
• CC12CCCC(O)C1CCC1=CC3(CCC12)SCCS3 (centres undefined) = inactive
• O=c1oc2ccccc2c(Nc2ccc3c(c2)S(=O)(=O)c2ccccc2O3)c1[N+](=O)[O-] = inactive
• CC[C@@]1(O)C(=O)OCc2c1cc1n(c2=O)Cc2c-1nc1ccccc1c2/C=N\NC(=O)C[n+]1ccccc1 = active
